conditions: 323.15 K; 100 kPa; Liquid
± gives the expanded uncertainty stated by the source.
Catalogue of mass density readings, one per entry.

>>> observed_value("OCCNCCO")
"1077.05 ± 1.7 kg/m3"

So what's the measured mass density for this one? `CCN1CCCC1=O` 972.16 ± 1.8 kg/m3

Look up mass density for this molecule: `OCCN(CCO)CCO` 1106.7 ± 2 kg/m3

For `NCCO` , what is its reported mass density? 992.05 ± 1 kg/m3

----------
Recorded measurements of viscosity, one per entry
conditions: 303.15 K; 100 kPa; Liquid
Numbers after ± are expanded uncertainties.
Give me the value, and tack the unit on after it.

>>> observed_value("CCN1CCCC1=O")
"1.777 ± 0.027 mPa·s"
>>> observed_value("NCCO")
"14.99 ± 0.15 mPa·s"
>>> observed_value("OCCNCCO")
"394.2 ± 28 mPa·s"

Consider the compound shown here: `OCCN(CCO)CCO` What is its recorded viscosity? 413.68 ± 30 mPa·s
